Target: Choline kinase alpha (ChoK) (Homo sapiens, UniProt P35790)
Sequence (P35790 whole entry): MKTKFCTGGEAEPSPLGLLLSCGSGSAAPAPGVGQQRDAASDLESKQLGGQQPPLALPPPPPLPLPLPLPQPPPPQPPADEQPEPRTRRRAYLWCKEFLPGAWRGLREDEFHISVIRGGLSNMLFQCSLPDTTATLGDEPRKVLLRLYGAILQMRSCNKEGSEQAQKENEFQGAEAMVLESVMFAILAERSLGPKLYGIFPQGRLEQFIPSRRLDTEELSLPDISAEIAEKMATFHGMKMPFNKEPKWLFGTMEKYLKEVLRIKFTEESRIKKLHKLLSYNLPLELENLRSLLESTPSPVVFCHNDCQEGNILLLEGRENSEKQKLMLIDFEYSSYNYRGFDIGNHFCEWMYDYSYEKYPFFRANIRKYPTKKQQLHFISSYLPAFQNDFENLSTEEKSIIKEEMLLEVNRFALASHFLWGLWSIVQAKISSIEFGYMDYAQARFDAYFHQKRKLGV
Assay: […]-choline phosphorylation in intact MDA-MB-231 cells, […] h
Format: cell-based

COMPOUND	IC50
CN(C)c1cc[n+](Cc2ccc(CCCCc3ccc(C[n+]4ccc(N(C)C)cc4)cc3)cc2)cc1 [MN58b]	2300 nM

* * *

Biological target: Choline kinase alpha (ChoK) (Homo sapiens)
Experiment: […]-choline phosphorylation in MDA-MB-231 cells
Format: cell-based
QUANTITY NAME: IC50 (µM)

SMI	MEASURED ON	QUANTITY NAME	TEST RESULT
CC1(C)C(/C=C/C=C/C=C/C=C2\N(CCO)c3ccccc3C2(C)C)=[N+](CCO)c2ccccc21	Choline kinase alpha (ChoK) (Homo sapiens)	IC50	4.6
